targetOrTestSystem: LRRK2 (Homo sapiens (Human), UniProt Q5S007, G2019S)
Sequence (Q5S007 970-2527 G2019S): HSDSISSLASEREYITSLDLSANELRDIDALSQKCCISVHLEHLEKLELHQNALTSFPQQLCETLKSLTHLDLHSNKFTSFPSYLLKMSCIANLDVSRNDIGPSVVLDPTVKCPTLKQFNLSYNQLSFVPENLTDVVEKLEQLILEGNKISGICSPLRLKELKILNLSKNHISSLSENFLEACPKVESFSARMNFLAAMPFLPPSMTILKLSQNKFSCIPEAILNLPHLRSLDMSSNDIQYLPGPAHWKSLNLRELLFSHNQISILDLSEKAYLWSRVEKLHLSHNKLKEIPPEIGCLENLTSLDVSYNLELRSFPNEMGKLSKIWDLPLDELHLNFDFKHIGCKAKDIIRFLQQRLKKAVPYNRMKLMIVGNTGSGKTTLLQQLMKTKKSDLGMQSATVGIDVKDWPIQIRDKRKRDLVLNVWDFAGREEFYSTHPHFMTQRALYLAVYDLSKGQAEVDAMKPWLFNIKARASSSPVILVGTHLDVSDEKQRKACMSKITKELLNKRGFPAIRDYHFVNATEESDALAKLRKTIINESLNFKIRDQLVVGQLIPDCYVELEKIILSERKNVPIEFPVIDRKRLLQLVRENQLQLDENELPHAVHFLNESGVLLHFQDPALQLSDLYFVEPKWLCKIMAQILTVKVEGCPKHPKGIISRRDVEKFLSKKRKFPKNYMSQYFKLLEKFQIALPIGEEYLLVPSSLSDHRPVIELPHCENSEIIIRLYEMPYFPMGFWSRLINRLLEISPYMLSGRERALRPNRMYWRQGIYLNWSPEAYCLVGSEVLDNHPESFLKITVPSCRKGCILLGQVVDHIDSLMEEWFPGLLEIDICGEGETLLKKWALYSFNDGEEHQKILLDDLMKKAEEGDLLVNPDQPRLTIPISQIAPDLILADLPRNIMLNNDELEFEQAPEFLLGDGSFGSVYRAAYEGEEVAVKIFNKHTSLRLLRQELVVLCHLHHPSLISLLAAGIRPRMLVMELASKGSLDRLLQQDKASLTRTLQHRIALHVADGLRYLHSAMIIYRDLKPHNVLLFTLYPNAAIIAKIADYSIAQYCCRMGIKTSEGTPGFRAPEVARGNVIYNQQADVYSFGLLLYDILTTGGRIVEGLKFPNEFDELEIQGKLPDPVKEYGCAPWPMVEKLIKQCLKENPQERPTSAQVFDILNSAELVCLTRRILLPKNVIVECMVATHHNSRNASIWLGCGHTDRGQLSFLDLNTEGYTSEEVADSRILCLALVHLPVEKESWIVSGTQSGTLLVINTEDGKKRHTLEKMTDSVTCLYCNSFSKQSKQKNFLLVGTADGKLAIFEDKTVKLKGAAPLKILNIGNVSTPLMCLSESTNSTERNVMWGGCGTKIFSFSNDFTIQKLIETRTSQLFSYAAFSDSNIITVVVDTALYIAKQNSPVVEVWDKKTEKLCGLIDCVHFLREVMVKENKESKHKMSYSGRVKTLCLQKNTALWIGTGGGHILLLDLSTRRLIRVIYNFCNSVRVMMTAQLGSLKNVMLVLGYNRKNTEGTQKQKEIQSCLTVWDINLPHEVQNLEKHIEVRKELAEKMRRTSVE
assayText: In Vitro LRRK2 LabChip Assay (LRRK2 Ki)
observedProperty: Ki (nM)

molecule: CNc1nc(Nc2cc(Cl)c(S(C)(=O)=O)cc2OC)ncc1C(F)(F)F [Example 20]
endpointUnit: nM
recordedResult: 1
--
molecule: CNc1nc(Nc2cc(F)c(CN3CCOCC3)cc2OCCF)ncc1C(F)(F)F [Example 21]
endpointUnit: nM
recordedResult: 4
--
molecule: CNc1nc(Nc2cc(F)c(N3CCCC3=O)cc2OC)ncc1C(F)(F)F [Example 30]
endpointUnit: nM
recordedResult: 3

I. CNc1nc(Nc2ccc(S(C)(=O)=O)cc2OCCF)ncc1C(F)(F)F [Example 19]
II. CNc1nc(Nc2ccc(S(C)(=O)=O)cc2Cl)ncc1C(F)(F)F [Example 7]
III. CNc1nc(Nc2cc(C)c(S(C)(=O)=O)cc2OC)ncc1C(F)(F)F [Example 23]
IV. CNc1nc(Nc2cc(F)c(N3CCCCC3=O)cc2OC)ncc1C(F)(F)F [Example 32]
V. COc1nc(Nc2ccc(S(C)(=O)=O)cc2Cl)ncc1Cl [Example 6]
Qu. Put the items in sequence by Ki, from largest down. Put the labels in the order asked and list them.
Ans. V, II, IV, I, III
